pIC50: −log10 of the molar value.
Ok so here's the combined literature set: pIC50 for Histone deacetylase 1 (Homo sapiens, UniProt Q13547).
Quantity: pIC50

[[record]]
structure_notation = "COc1cc(C(=O)c2ccc3c(ccn3Cc3ccc(/C=C/C(=O)NO)cc3)c2)cc(OC)c1OC"
quantity = "pIC50"
measured_number = 5.46

[[record]]
structure_notation = "CCCCc1nc2cc(/C=C/C(=O)NO)ccc2n1CCN(C)C(C)C"
quantity = "pIC50"
measured_number = 7.35

[[record]]
structure_notation = "Cn1cc(-c2cc(C(C)(C)O)ccc2Oc2ccc(F)cc2F)c2cc(C(=O)NCCCCCCC(=O)NO)[nH]c2c1=O"
quantity = "pIC50"
measured_number = 7.28


[I] Nc1ccccc1NC(=O)c1ccc(OCCn2ncc3c2nc(N)n2nc(-c4ccco4)nc32)cc1
[II] O=C(CCCCCCCOc1cccc(-c2nc3ccccc3[nH]2)c1)NO
[III] COc1ccc(COc2cccc3ccc(C(=O)NCc4ccc(C(=O)NO)cc4)nc23)cc1
[IV] O=C(NO)c1ccc(/C=C/c2ccncc2)cc1
[V] COc1ccc2[nH]c(C)c(CC(=O)N[C@@H](CCCCCC(=O)O)c3ncc(-c4ccc5ccccc5c4)[nH]3)c2c1
Please list these molecules in decreasing order of pIC50. Response format: the labels, sorted as the prompt asks.
V, II, III, I, IV
(V: 7.55, II: 7.28, III: 6.89, I: 6.55, IV: 6.20)
